Origin of measurements: patent US20140094415A1

Target: HIS-PDZ1-2 protein (PSD-95 PDZ1-2 tandem) (human), P78352
Assay: fluorescence polarization, heterologous competition against AB143 probe
recordedEndpoint: Ki (nM)

> print(dat)
                                     binder  recordedendpoint  quantityunit  observed
1  IETAV (modifications not checked) [NPEG4(IETAV)2 (AB141)]                Ki            nM       9.3
